Target: human Aβ antigen (human)
Sequence (peptide, as listed by the source): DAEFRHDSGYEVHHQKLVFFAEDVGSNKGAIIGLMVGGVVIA
Assay: cell-based or functional assay
PARAMETER_MEASURED: relative fluorescence intensity (ThT, Aβ polymerization; hIgG = 1.00)

066-4.26.14H5L1 (antibody, V domains shown) VH: EVQLVESGGGLVQPGGSLRLSCVASGFTFRSYAMSWVRQAPGKGLEWVASISTTSNTYYPDSVKGRFTTSRDNSKNTVYLQMSSLRAEDTAVYYCGRGVITNQAWFAYWGQGTLVTVSS VL: DIVLTQSPATLSVSPGERVTLSCRASQSISNNLHWYQQKSGQAPRLLIKYASQSISGIPSRFSGSGSGTDFTLTISSLQSEDFAVYFCQQSNSWPLTFGGGTQVEIK = 0.68
066-4.26.14H2L2 (antibody, V domains shown) VH: EVQLVESGGGLVKPGGSLRLSCAASGFTFRSYAMSWVRQTPEKRLEWVASISTTSNTYYPDSVKGRFTTSRDNAKNSVYLQMSSLRAEDTAVYYCGRGVITNQAWFAYWGQGTTVTVSS VL: DIVLTQSPATLSVSPGERATLSCRASQSISNNLHWYQQKPGQAPRLLIKYASQSISGIPARFSGSGSGTDFTLTISSLQSEDFAVYFCQQSNSWPLTFGGGTKVEIK = 0.62
066-4.26.14H4L2 (antibody, V domains shown) VH: EVQLVESGGGLVQPGGSLRLSCAASGFTFRSYAMSWVRQAPGKGLEWVASISTTSNTYYPDSVKGRFTTSRDNAKNSVYLQMSSLRDEDTAMYYCGRGVITNQAWFAYWGQGILVTVSS VL: DIVLTQSPATLSVSPGERATLSCRASQSISNNLHWYQQKPGQAPRLLIKYASQSISGIPARFSGSGSGTDFTLTISSLQSEDFAVYFCQQSNSWPLTFGGGTKVEIK = 0.7
066-4.26.14H5L3 (antibody, V domains shown) VH: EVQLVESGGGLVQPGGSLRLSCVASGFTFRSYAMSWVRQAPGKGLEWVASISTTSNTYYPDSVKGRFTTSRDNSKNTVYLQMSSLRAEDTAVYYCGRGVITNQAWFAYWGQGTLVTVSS VL: DIVLTQSPDFQSVTPKEKVTISCRASQSISNNLHWYQQKPDQSPKLLIKYASQSISGIPSRFSGSGSGTDFTLTINSLEAEDAAAYFCQQSNSWPLTFGPGTKVEIK = 0.78
066-4.26.14 (antibody, V domains shown) VH: EVKLVESGGGLVKPGGSLKLSCAASGFTFRSYAMSWVRQTPEKRLEWVASISTTSNTYYPDSVKGRFTTSRDNARNIVYLQMSSLRSDDTAMYYCGRGVITNQAWFAYWGQGTLVTVSA VL: DIVLTQSPATLSVTPGDSVSLSCRASQSISNNLHWYQQKSHESPRLLIKYASQSISGIPSRFSGSGSGTDFTLSVNNVGTEDFGMYFCQQSNSWPLTFGAGTKLELK = 0.7
066-4.26.14H5L2 (antibody, V domains shown) VH: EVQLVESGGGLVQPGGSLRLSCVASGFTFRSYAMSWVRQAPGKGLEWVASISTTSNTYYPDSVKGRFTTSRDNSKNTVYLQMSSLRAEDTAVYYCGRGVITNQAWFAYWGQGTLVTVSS VL: DIVLTQSPATLSVSPGERATLSCRASQSISNNLHWYQQKPGQAPRLLIKYASQSISGIPARFSGSGSGTDFTLTISSLQSEDFAVYFCQQSNSWPLTFGGGTKVEIK = 0.67
